test system: Candida tropicalis; assay: Antifungal activity against Candida tropicalis GIM 2.183 assessed as inhibition of fungal growth by CLSI M27-A3 guidelines based method; assay type: functional
The entries below come with measured log10(MIC80) values attached.
MEASURED_METRIC: log10(MIC80) (log10 of the value in µg/mL)

[
  {
    "COMPOUND": "CN(Cc1ccc(N2CCN(Cc3ccc(Br)cc3Br)CC2)cc1)CC(O)(Cn1cncn1)c1ccc(F)cc1F (stereo not drawn)",
    "log10(MIC80)": -2.22
  },
  {
    "COMPOUND": "CN(Cc1ccc(N2CCN(Cc3ccccc3Br)CC2)cc1)CC(O)(Cn1cncn1)c1ccc(F)cc1F (stereo not drawn)",
    "log10(MIC80)": -1.89
  },
  {
    "COMPOUND": "CN(Cc1ccc(N2CCN(Cc3ccc(C(C)(C)C)cc3)CC2)cc1)CC(O)(Cn1cncn1)c1ccc(F)cc1F (stereo not drawn)",
    "log10(MIC80)": -1.89
  },
  {
    "COMPOUND": "COc1ccc(CN2CCN(c3ccc(CN(C)CC(O)(Cn4cncn4)c4ccc(F)cc4F)cc3)CC2)cc1 (stereo not drawn)",
    "log10(MIC80)": -0.70
  },
  {
    "COMPOUND": "CC(=O)N1CCN(c2ccc(CN(C)CC(O)(Cn3cncn3)c3ccc(F)cc3F)cc2)CC1 (stereo not drawn)",
    "log10(MIC80)": -0.30
  },
  {
    "COMPOUND": "CN(Cc1ccc(N2CCN(Cc3cc(Br)ccc3Br)CC2)cc1)CC(O)(Cn1cncn1)c1ccc(F)cc1F (stereo not drawn)",
    "log10(MIC80)": -2.22
  },
  {
    "COMPOUND": "CN(Cc1ccc(N2CCN(Cc3cccc(F)c3)CC2)cc1)CC(O)(Cn1cncn1)c1ccc(F)cc1F (stereo not drawn)",
    "log10(MIC80)": -1.60
  },
  {
    "COMPOUND": "CN(Cc1ccc(N2CCN(Cc3c(F)cccc3Br)CC2)cc1)CC(O)(Cn1cncn1)c1ccc(F)cc1F (stereo not drawn)",
    "log10(MIC80)": -1.89
  }
]

----------
system: Candida albicans; assay: Antifungal activity against Candida albicans GIM 2.194 assessed as inhibition of fungal growth by CLSI M27-A3 guidelines based method; assay type: functional

[
  {
    "COMPOUND": "CN(Cc1ccc(N2CCN(C(=O)C3CC3)CC2)cc1)CC(O)(Cn1cncn1)c1ccc(F)cc1F (stereo not drawn)",
    "UNIT_ABBREV": "µg/mL",
    "MIC80": 1
  },
  {
    "COMPOUND": "CN(Cc1ccc(N2CCN(Cc3ccc(Br)cc3)CC2)cc1)CC(O)(Cn1cncn1)c1ccc(F)cc1F (stereo not drawn)",
    "UNIT_ABBREV": "µg/mL",
    "MIC80": 0.025
  },
  {
    "COMPOUND": "CC(C)c1ccc(CN2CCN(c3ccc(CN(C)CC(O)(Cn4cncn4)c4ccc(F)cc4F)cc3)CC2)cc1 (stereo not drawn)",
    "UNIT_ABBREV": "µg/mL",
    "MIC80": 0.013
  },
  {
    "COMPOUND": "CN(Cc1ccc(N2CCN(Cc3c(Cl)cccc3Br)CC2)cc1)CC(O)(Cn1cncn1)c1ccc(F)cc1F (stereo not drawn)",
    "UNIT_ABBREV": "µg/mL",
    "MIC80": 0.025
  },
  {
    "COMPOUND": "CN(Cc1ccc(N2CCN(Cc3cccc(F)c3)CC2)cc1)CC(O)(Cn1cncn1)c1ccc(F)cc1F (stereo not drawn)",
    "UNIT_ABBREV": "µg/mL",
    "MIC80": 0.025
  },
  {
    "COMPOUND": "CN(Cc1ccc(N2CCN(Cc3ccc(C(C)(C)C)cc3)CC2)cc1)CC(O)(Cn1cncn1)c1ccc(F)cc1F (stereo not drawn)",
    "UNIT_ABBREV": "µg/mL",
    "MIC80": 0.006
  },
  {
    "COMPOUND": "COc1ccc(CN2CCN(c3ccc(CN(C)CC(O)(Cn4cncn4)c4ccc(F)cc4F)cc3)CC2)cc1 (stereo not drawn)",
    "UNIT_ABBREV": "µg/mL",
    "MIC80": 0.1
  },
  {
    "COMPOUND": "CN(Cc1ccc(N2CCN(Cc3ccc(F)cc3)CC2)cc1)CC(O)(Cn1cncn1)c1ccc(F)cc1F (stereo not drawn)",
    "UNIT_ABBREV": "µg/mL",
    "MIC80": 0.05
  },
  {
    "COMPOUND": "CN(Cc1ccc(N2CCN(Cc3ccc(S(C)(=O)=O)cc3)CC2)cc1)CC(O)(Cn1cncn1)c1ccc(F)cc1F (stereo not drawn)",
    "UNIT_ABBREV": "µg/mL",
    "MIC80": 0.8
  },
  {
    "COMPOUND": "CN(Cc1ccc(N2CCN(Cc3ccccc3Br)CC2)cc1)CC(O)(Cn1cncn1)c1ccc(F)cc1F (stereo not drawn)",
    "UNIT_ABBREV": "µg/mL",
    "MIC80": 0.006
  },
  {
    "COMPOUND": "CN(Cc1ccc(N2CCN(Cc3cccc(I)c3)CC2)cc1)CC(O)(Cn1cncn1)c1ccc(F)cc1F (stereo not drawn)",
    "UNIT_ABBREV": "µg/mL",
    "MIC80": 0.025
  },
  {
    "COMPOUND": "CN(Cc1ccc(N2CCN(Cc3ccccc3F)CC2)cc1)CC(O)(Cn1cncn1)c1ccc(F)cc1F (stereo not drawn)",
    "UNIT_ABBREV": "µg/mL",
    "MIC80": 0.006
  },
  {
    "COMPOUND": "CN(Cc1ccc(N2CCN(Cc3cc(Br)ccc3Br)CC2)cc1)CC(O)(Cn1cncn1)c1ccc(F)cc1F (stereo not drawn)",
    "UNIT_ABBREV": "µg/mL",
    "MIC80": 0.025
  },
  {
    "COMPOUND": "C#Cc1ccc(CN2CCN(c3ccc(CN(C)CC(O)(Cn4cncn4)c4ccc(F)cc4F)cc3)CC2)cc1 (stereo not drawn)",
    "UNIT_ABBREV": "µg/mL",
    "MIC80": 0.2
  },
  {
    "COMPOUND": "CN(Cc1ccc(N2CCN(Cc3ccc([N+](=O)[O-])cc3)CC2)cc1)CC(O)(Cn1cncn1)c1ccc(F)cc1F (stereo not drawn)",
    "UNIT_ABBREV": "µg/mL",
    "MIC80": 0.05
  },
  {
    "COMPOUND": "CN(Cc1ccc(N2CCN(Cc3ccc(OC(F)(F)F)cc3)CC2)cc1)CC(O)(Cn1cncn1)c1ccc(F)cc1F (stereo not drawn)",
    "UNIT_ABBREV": "µg/mL",
    "MIC80": 0.013
  },
  {
    "COMPOUND": "CN1CCN(c2ccc(CN(C)CC(O)(Cn3cncn3)c3ccc(F)cc3F)cc2)CC1 (stereo not drawn)",
    "UNIT_ABBREV": "µg/mL",
    "MIC80": 8
  },
  {
    "COMPOUND": "CN(Cc1ccc(N2CCN(Cc3ccc(C(F)(F)F)cc3Br)CC2)cc1)CC(O)(Cn1cncn1)c1ccc(F)cc1F (stereo not drawn)",
    "UNIT_ABBREV": "µg/mL",
    "MIC80": 0.025
  }
]

----------
assay: AUC (0 to t) in Sprague-Dawley rat at 10 mg/kg, po by LC-MS/MS analysis; assay type: ADME, organism-based; conditions: in vivo

[
  {
    "MOLECULE": "CN(Cc1ccc(N2CCN(Cc3ccc(F)cc3Br)CC2)cc1)CC(O)(Cn1cncn1)c1ccc(F)cc1F (stereo unspecified)",
    "UNIT_ABBREV": "ng·h/mL",
    "AUC(0-t)": 14.4
  }
]

----------
system: Candida tropicalis; assay: Antifungal activity against Candida tropicalis GIM 2.183 assessed as inhibition of fungal growth by CLSI M27-A3 guidelines based method; assay type: functional

[
  {
    "COMPOUND": "CN(Cc1ccc(N2CCN(Cc3cc(Cl)ccc3Br)CC2)cc1)CC(O)(Cn1cncn1)c1ccc(F)cc1F (stereo not drawn)",
    "MIC80": "0.006 µg/mL"
  },
  {
    "COMPOUND": "CC(C)C(=O)N1CCN(c2ccc(CN(C)CC(O)(Cn3cncn3)c3ccc(F)cc3F)cc2)CC1 (stereo not drawn)",
    "MIC80": "0.5 µg/mL"
  },
  {
    "COMPOUND": "CN(Cc1ccc(N2CCN(Cc3ccc(C(F)(F)F)cc3)CC2)cc1)CC(O)(Cn1cncn1)c1ccc(F)cc1F (stereo not drawn)",
    "MIC80": "0.013 µg/mL"
  },
  {
    "COMPOUND": "CN(Cc1ccc(N2CCN(Cc3ccc(Cl)cc3)CC2)cc1)CC(O)(Cn1cncn1)c1ccc(F)cc1F (stereo not drawn)",
    "MIC80": "0.05 µg/mL"
  },
  {
    "COMPOUND": "CN(Cc1ccc(N2CCN(Cc3ccccc3)CC2)cc1)CC(O)(Cn1cncn1)c1ccc(F)cc1F (stereo not drawn)",
    "MIC80": "0.013 µg/mL"
  },
  {
    "COMPOUND": "CN(Cc1ccc(N2CCN(Cc3cccc(I)c3)CC2)cc1)CC(O)(Cn1cncn1)c1ccc(F)cc1F (stereo not drawn)",
    "MIC80": "0.013 µg/mL"
  },
  {
    "COMPOUND": "CCC(=O)N1CCN(c2ccc(CN(C)CC(O)(Cn3cncn3)c3ccc(F)cc3F)cc2)CC1 (stereo not drawn)",
    "MIC80": "0.5 µg/mL"
  },
  {
    "COMPOUND": "CN(Cc1ccc(N2CCN(Cc3ccc(C#N)cc3)CC2)cc1)CC(O)(Cn1cncn1)c1ccc(F)cc1F (stereo not drawn)",
    "MIC80": "0.05 µg/mL"
  }
]
